Each recorded value in this set is attributed to patent US20250145589A1.

target: UniProtKB P42336; experiment: Inhibition of PI3Kα efficacy assay (ADP-Glo kinase assay); format: biochemical; settings: Table 4; read-out: PI3Kα inhibitory activity (IC50)
Consider the following compounds; for each one, report its IC50.
Answer in nM, number only, no unit symbol.

input: IC50 lookup needed for COc1ncc(-c2ccc3ncnc(N4CCC5(CC4)CN(C(=O)/C=C/C(C)=O)C5)c3c2)cc1NS(=O)(=O)c1ccc(F)cc1 , thanks.
output: 0.82

input: IC50 lookup needed for COc1ncc(-c2ccc3ncnc(N4CCN(C(=O)/C=C/C(C)=O)CC4)c3c2)cc1NS(=O)(=O)c1ccc(C(=O)O)cc1F , thanks.
output: 0.57

input: IC50 lookup needed for COc1ncc(-c2ccc3ncnc(N4CCN(C(=O)/C=C/C(C)=O)CC4)c3c2)cc1NS(=O)(=O)c1ccc(F)cc1Cl , thanks.
output: 3.8

###

Consider the following compounds; for each one, report its IC50.
System: MIA PaCa-2 cells (KRAS G12C mutant)
Experiment: MIA PaCa-2 cell anti-proliferation (CellTiter-Glo)
Type: cell-based
Conditions: Homo sapiens, 72 h; MIA Paca-2 cells, 3 days, Table 7; read-out: MIA PaCa-2 (IC50)
Experimental: The number of viable cells was determined using the CellTiter-Glo® assay to evaluate the anti-proliferation efficacy of compounds. […] Data were analyzed using GraphPad Prism for IC50 values (Note: The negative control refers to the group without inhibitor).
Answer in nM, number only, no unit symbol.

input: IC50 lookup needed for COc1ncc(-c2ccc3ncnc(N4CCN(C(=O)/C=C/C(C)=O)CC4)c3c2)cc1NS(=O)(=O)c1ccc(C#N)cc1F [Example 123] , thanks.
output: 84.1

input: IC50 lookup needed for COc1ccc(S(=O)(=O)Nc2cc(-c3ccc4ncnc(N5CCN(C(=O)/C=C/C(C)=O)CC5)c4c3)cnc2OC)c(F)c1 [Example 185] , thanks.
output: 104

input: IC50 lookup needed for COc1ncc(-c2ccc3ncnc(N4CC5CCC(C4)N5C(=O)/C=C/C(C)=O)c3c2)cc1NS(=O)(=O)c1c(F)cccc1F [Example 145] , thanks.
output: 77.2

input: IC50 lookup needed for CCOc1ncc(-c2ccc3ncnc(N4CCN(C(=O)/C=C/C(C)=O)CC4)c3c2)cc1NS(=O)(=O)c1ccccc1F [Example 190] , thanks.
output: 108

input: IC50 lookup needed for COc1ncc(-c2ccc3ncnc(N4CCN(C(=O)/C=C/C(C)=O)CC4)c3c2)cc1NS(=O)(=O)c1cccc2cccc(Cl)c12 [Example 96] , thanks.
output: 90

###

Target: KRAS^G12C-SOS1 (Homo sapiens (Human), UniProt P01116, G12C)
Sequence (P01116-2 other isoform, or with tags, fused parts or gaps G12C): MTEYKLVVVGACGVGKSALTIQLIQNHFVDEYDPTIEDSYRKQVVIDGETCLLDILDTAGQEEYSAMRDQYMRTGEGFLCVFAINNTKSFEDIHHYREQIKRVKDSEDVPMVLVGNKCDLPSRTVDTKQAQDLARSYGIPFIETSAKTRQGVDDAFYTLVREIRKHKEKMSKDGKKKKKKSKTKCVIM
Assay: HTRF KRAS G12C/SOS1 binding assay
Conditions: Table 5
Description: Initially, a 2 mM stock solution of the test compound (dissolved in DMSO) was serially diluted in five-fold concentrations using DMSO to obtain eight working solutions 1 (200×). […] Remove the plate and read on an HTRF® compatible reader, with the excitation light wavelength set at 337 nm and readings recorded at 620 nm and 665 nm. […] The inhibition rate was calculated using the following formula: […]
Consider the following molecules; for each one, report its pIC50.
Lab note: report pIC50 as minus log10 of the concentration in molar units, number only.

input: I'm curious: which pIC50 was measured for COc1ncc(-c2ccc3ncnc(N4CCN(C(=O)/C=C/C(C)=O)CC4)c3c2)cc1NS(=O)(=O)c1ccc(Cl)s1 tested on KRAS^G12C-SOS1 (Homo sapiens (Human), UniProt P01116, G12C)?
output: 6.09

input: I'm curious: which pIC50 was measured for COc1ncc(-c2ccc3ncnc(N4CCC5(CN(C(=O)/C=C/C(C)=O)C5)C4)c3c2)cc1NS(=O)(=O)c1c(F)cccc1F tested on KRAS^G12C-SOS1 (Homo sapiens (Human), UniProt P01116, G12C)?
output: 6.96

input: I'm curious: which pIC50 was measured for COc1ncc(-c2ccc3ncnc(N4C5CCC4CN(C(=O)/C=C/C(C)=O)C5)c3c2)cc1NS(=O)(=O)c1ccc(F)cc1F tested on KRAS^G12C-SOS1 (Homo sapiens (Human), UniProt P01116, G12C)?
output: 6.41

input: I'm curious: which pIC50 was measured for COc1ncc(-c2ccc3ncnc(N4CCC5(CC4)CN(C(=O)/C=C/C(C)=O)C5)c3c2)cc1NS(=O)(=O)c1c(F)cc(F)cc1F tested on KRAS^G12C-SOS1 (Homo sapiens (Human), UniProt P01116, G12C)?
output: 6.70

###

System: MIA PaCa-2 cells (KRAS G12C mutant)
Assay: MIA PaCa-2 cell anti-proliferation (CellTiter-Glo)
Assay type: cell-based
Conditions: Homo sapiens, 72 h; MIA Paca-2 cells, 3 days, Table 7; read-out: MIA PaCa-2 (IC50)
Procedure: The number of viable cells was determined using the CellTiter-Glo® assay to evaluate the anti-proliferation efficacy of compounds. […] Data were analyzed using GraphPad Prism for IC50 values (Note: The negative control refers to the group without inhibitor).
Consider the following compounds; for each one, report its pIC50.
Lab note: report pIC50 as minus log10 of the concentration in molar units, number only.

input: pIC50 lookup needed for COc1ncc(-c2ccc3ncnc(N4CCN(C(=O)/C=C/C(C)=O)C[C@@H]4C)c3c2)cc1NS(=O)(=O)c1ccc(F)cc1F , thanks.
output: 7.13

input: pIC50 lookup needed for COc1ncc(-c2ccc3ncnc(N4CCN(C(=O)/C=C/C(C)=O)CC4)c3c2)cc1NS(=O)(=O)c1c(C)cccc1F , thanks.
output: 7.28

input: pIC50 lookup needed for COc1ncc(-c2ccc3ncnc(N4CC5CCC(C4)N5C(=O)/C=C/C(C)=O)c3c2)cc1NS(=O)(=O)c1c(F)cc(F)cc1F , thanks.
output: 7.11

###

Consider the following molecules; for each one, report its IC50.
target: UniProt O00329; experiment: Inhibition of PI3Kδ efficacy assay (ADP-Glo kinase assay); type: biochemical; conditions: Table 4; read-out: PI3Kδ inhibitory activity (IC50)
Sequence (O00329 whole entry): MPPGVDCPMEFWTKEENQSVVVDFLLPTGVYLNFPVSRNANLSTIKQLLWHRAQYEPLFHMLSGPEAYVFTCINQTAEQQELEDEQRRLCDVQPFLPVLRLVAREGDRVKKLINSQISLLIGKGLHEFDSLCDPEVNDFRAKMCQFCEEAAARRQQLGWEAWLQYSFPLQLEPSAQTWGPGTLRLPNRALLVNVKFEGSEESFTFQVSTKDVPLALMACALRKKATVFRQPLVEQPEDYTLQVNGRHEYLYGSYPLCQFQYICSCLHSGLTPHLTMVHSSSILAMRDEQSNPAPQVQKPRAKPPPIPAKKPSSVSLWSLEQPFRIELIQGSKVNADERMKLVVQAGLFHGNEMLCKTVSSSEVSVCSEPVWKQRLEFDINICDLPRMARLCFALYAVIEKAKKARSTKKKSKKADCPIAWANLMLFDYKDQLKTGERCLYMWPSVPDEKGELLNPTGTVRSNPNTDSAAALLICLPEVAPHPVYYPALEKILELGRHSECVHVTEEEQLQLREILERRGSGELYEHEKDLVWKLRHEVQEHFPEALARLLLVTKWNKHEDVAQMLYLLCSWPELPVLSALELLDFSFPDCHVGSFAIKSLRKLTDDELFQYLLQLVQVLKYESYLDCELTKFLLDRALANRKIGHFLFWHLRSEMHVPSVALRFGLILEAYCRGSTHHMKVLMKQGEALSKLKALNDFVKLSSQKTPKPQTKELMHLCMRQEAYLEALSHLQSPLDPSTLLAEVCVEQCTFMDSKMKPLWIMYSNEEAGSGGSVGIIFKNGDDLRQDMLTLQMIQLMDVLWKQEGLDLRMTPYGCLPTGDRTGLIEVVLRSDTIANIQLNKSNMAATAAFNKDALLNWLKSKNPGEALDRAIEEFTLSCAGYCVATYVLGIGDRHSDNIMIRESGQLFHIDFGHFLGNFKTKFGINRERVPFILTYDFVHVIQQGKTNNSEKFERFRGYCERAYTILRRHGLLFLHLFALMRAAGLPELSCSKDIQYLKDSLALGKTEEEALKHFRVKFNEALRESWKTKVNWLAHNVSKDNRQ
Sequence (P27986 whole entry partner): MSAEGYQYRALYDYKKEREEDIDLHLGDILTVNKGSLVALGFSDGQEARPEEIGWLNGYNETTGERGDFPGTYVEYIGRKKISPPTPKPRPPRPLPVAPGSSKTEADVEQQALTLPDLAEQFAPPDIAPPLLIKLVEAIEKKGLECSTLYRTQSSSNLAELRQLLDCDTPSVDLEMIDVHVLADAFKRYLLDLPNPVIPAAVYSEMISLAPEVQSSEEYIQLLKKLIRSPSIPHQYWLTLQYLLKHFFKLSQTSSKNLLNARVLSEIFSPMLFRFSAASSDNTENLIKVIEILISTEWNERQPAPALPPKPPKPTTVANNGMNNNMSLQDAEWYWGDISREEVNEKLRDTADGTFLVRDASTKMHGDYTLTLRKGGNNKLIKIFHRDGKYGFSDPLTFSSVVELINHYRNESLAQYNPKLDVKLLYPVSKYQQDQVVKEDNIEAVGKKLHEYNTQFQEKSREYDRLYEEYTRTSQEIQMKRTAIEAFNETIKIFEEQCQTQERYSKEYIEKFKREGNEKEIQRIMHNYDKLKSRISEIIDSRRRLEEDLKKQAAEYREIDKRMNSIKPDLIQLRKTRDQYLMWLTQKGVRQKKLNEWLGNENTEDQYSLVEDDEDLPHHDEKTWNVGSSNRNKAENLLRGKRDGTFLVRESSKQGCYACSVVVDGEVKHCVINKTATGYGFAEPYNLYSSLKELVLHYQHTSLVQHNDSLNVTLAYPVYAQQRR

input: IC50 lookup needed for COc1ncc(-c2ccc3ncnc(N4CCN(C(=O)/C=C/C(C)=O)CC4)c3n2)cc1NS(=O)(=O)c1cccc(F)c1F , thanks.
output: 10.8 nM

input: IC50 lookup needed for COc1ncc(-c2ccc3ncnc(N4CCN(C(=O)/C=C/C(C)=O)CC4)c3n2)cc1NS(=O)(=O)c1cc(F)ccc1F , thanks.
output: 10.6 nM

input: IC50 lookup needed for CC(=O)/C=C/C(=O)N1CCN(c2ncnc3ccc(-c4cnc(N(C)C)c(NS(=O)(=O)c5ccc(F)cc5F)c4)cc23)CC1 , thanks.
output: 13.5 nM

###

biological target: PI3Kα (Homo sapiens (Human), UniProt P42336); assay: Inhibition of PI3Kα efficacy assay (ADP-Glo kinase assay); type: biochemical; details: Table 1; read-out: PI3Kα inhibitory activity (IC50)
Sequence (P42336 whole entry): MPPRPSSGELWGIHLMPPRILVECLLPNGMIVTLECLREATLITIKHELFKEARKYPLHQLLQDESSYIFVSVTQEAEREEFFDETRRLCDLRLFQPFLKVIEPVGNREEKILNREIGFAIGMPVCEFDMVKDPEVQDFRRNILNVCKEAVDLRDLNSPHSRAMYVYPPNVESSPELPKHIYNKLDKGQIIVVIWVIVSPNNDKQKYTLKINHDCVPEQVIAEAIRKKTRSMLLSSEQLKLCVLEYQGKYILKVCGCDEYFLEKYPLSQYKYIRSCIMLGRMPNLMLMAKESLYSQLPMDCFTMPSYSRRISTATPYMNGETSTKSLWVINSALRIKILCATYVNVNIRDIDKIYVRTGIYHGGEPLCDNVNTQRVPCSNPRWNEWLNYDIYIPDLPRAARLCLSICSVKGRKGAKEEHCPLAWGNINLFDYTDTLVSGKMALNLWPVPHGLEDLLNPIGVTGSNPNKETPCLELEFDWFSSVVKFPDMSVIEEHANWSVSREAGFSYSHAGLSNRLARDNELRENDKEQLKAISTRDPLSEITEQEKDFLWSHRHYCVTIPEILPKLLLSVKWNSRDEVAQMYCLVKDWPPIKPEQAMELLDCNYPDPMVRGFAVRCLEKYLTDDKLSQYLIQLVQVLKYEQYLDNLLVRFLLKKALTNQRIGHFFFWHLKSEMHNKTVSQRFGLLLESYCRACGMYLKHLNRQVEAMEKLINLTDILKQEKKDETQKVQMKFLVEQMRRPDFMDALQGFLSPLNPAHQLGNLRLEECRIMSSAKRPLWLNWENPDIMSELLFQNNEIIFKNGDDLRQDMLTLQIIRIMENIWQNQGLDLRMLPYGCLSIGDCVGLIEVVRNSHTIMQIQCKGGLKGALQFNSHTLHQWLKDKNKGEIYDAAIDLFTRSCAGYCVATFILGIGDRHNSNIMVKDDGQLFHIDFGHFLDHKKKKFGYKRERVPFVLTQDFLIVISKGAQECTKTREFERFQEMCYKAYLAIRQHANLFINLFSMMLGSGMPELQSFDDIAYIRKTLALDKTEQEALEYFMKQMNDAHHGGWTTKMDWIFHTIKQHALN
Sequence (P27986 whole entry partner): as the sequence (P27986 whole entry partner) above
pIC50: −log10 of the molar value.
Consider the reported pIC50 of an entry and match it to a band in class 1: < 8; class 2: ≥ 8 and < 9; class 3: ≥ 9

input: Returns: class label. Input: C=CC(=O)N1CCN(c2ncnc3ccc(-c4cnc(OC)c(NS(=O)(=O)c5c(F)cccc5F)c4)cc23)CC1 [Example 21]
output: class 2

input: Returns: class label. Input: COc1ncc(-c2ccc3ncnc(N4CCN(C(=O)/C=C/n5ccnn5)CC4)c3c2)cc1NS(=O)(=O)c1ccc(F)cc1F [Example 10]
output: class 3

input: Returns: class label. Input: C=CC(=O)N1CCN(c2ncnc3ccc(-c4cnc(Cl)c(NS(=O)(=O)c5ccc(Cl)s5)c4)cc23)CC1 [Example 35]
output: class 2

input: Returns: class label. Input: C=CC(=O)N1CCN(c2ncnc3ccc(-c4cnc(OC)c(NS(=O)(=O)c5ccc(F)cc5F)c4)cc23)CC1 [Example 1]
output: class 3

input: Returns: class label. Input: C=CC(=O)N1CCN(c2nc(C#N)nc3ccc(-c4cnc(OC)c(NS(=O)(=O)c5ccc(F)cc5F)c4)cc23)CC1 [Example 31]
output: class 1

input: Returns: class label. Input: CCCC(=O)/C=C/C(=O)N1CCN(c2ncnc3ccc(-c4cnc(OC)c(NS(=O)(=O)c5ccc(F)cc5F)c4)cc23)CC1 [Example 17]
output: class 2

input: Returns: class label. Input: C=CC(=O)N1CCN(c2ncnc3ccc(-c4cnc(OC)c(NS(=O)(=O)c5ccccc5)c4)cc23)CC1 [Example 24]
output: class 2

input: Returns: class label. Input: C=CC(=O)N1CCN(c2ncnc3ccc(-c4cnc(OC)c(NS(=O)(=O)C5CCCCC5)c4)cc23)CC1 [Example 25]
output: class 1

input: Returns: class label. Input: C=CC(=O)N1CCN(c2nc(O)nc3ccc(-c4cnc(OC)c(NS(=O)(=O)c5ccc(F)cc5F)c4)cc23)CC1 [Example 32]
output: class 1

input: Returns: class label. Input: C=CC(=O)N1CCN(c2nc(N)nc3ccc(-c4cnc(OC)c(NS(=O)(=O)c5ccc(F)cc5F)c4)cc23)CC1 [Example 30]
output: class 1
